# targetOrTestSystem: EGFR (Homo sapiens, UniProt P00533)
# Construct: endogenous in cells; host or cells: A431 cells (lysate, captured with SUMO1 anti-EGFR antibody)
# Sequence (P00533 25-1210): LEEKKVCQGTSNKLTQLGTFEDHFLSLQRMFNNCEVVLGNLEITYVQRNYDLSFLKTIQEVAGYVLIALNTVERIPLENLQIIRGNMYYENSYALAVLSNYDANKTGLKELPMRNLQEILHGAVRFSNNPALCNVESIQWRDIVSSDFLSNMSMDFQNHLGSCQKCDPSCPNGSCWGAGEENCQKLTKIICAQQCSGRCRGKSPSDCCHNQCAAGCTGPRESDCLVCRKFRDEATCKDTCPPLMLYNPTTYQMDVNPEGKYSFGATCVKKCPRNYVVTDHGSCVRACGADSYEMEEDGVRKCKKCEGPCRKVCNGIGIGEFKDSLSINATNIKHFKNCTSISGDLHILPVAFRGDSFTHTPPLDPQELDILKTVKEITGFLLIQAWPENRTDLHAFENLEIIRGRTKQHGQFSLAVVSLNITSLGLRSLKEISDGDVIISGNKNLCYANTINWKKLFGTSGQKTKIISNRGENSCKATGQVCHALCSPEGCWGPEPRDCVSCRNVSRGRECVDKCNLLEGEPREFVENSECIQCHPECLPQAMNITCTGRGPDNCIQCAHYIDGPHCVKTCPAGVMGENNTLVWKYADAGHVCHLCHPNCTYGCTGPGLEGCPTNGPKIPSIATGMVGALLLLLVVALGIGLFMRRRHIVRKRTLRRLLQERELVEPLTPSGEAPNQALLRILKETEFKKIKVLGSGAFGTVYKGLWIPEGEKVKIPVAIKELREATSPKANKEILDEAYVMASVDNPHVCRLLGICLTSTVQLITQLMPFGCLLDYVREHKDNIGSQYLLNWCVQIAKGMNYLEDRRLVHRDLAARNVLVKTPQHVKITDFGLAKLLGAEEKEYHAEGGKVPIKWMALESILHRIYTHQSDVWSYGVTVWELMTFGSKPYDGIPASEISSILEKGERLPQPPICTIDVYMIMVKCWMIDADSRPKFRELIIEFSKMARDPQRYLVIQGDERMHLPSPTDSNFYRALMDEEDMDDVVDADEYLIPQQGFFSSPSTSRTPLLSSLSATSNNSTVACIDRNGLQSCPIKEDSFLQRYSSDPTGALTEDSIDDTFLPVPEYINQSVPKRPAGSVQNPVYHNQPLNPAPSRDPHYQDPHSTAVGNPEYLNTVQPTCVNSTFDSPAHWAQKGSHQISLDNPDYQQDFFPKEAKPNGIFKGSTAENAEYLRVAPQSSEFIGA
# assayNotes: Biochemical EGFR Assay
# Parameters: concentration or dose not given beside the values
experimentalReadout: Biochem EGFR % Inhibition (P.167)
Enter the number, and then the unit.

{"columns": ["compound", "result"],
 "data": [
  ["O=C1Nc2c(Br)cc(Br)cc2C1=Cc1ccccc1Cl", "−29.3%"],
  ["Cc1c(Br)cc(Br)c2c1C(=Cc1sccc1Br)C(=O)N2", "−23.5%"],
  ["Cc1c(Br)cc(Br)c2c1C(=Cc1cccs1)C(=O)N2", "25.7%"]
]}

Now for the molecule whose Biochem EGFR % Inhibition (P.167) we want.
Exercise: Can you share its Biochem EGFR % Inhibition (P.167)? I mean this molecule: "COc1c(C(C)(C)C)cc(C=C2C(=O)Nc3c(Br)cc(Br)c(C)c32)cc1C(C)(C)C"
Solution: −24.0%

###

# System: FLK-1 receptor
# assayNotes: FLK-1 Assay (cellular/catalytic ELISA, VEGF-stimulated phosphotyrosine)
# Assay type: cell-based
# Set-up: concentration or dose not given beside the values
# runParameters: protocol P.110
experimentalReadout: Flk Kinase % Inhibition (P.110) (%)
A number alone suffices; assume %.

The examples below pair each entry with its known result.
{"columns": ["compound", "measuredNumber"],
 "data": [
  ["Cc1c(Br)cc(Br)c2c1C(=Cc1ccc(Oc3ccccc3)cc1)C(=O)N2", 5.5],
  ["Cc1ccc(Oc2cccc(C=C3C(=O)Nc4ccc(Br)c(C)c43)c2)cc1", "−0.1"]
]}

Exercise: Can you share its Flk Kinase % Inhibition (P.110)? I mean this compound: "O=C1Nc2c(Br)cc(Br)cc2C1=Cc1cc(Br)cs1"
Solution: −7.7

Exercise: Now this one: "O=C1Nc2ccc(S(=O)(=O)Nc3ccc(C(F)(F)F)cc3)cc2C1=Cc1ccc(OCc2ccccc2)cc1"
Solution: 17.7

Exercise: Now this one: "Cc1ccc(C=C2C(=O)Nc3ccc(I)cc32)c(C)c1"
Solution: 7.0

Exercise: Now this one: "O=C1Nc2ccc(S(=O)(=O)N3CCOCC3)cc2C1=Cc1cccc(Oc2cccc(C(F)(F)F)c2)c1"
Solution: 31.6

Exercise: Now this one: "O=C1Nc2ccc(S(=O)(=O)Nc3ccc(C(F)(F)F)cc3)cc2C1=Cc1ccsc1"
Solution: 28.7

Exercise: Now this one: "COc1ccc(C=C2C(=O)Nc3ccc(Br)c(C)c32)cc1F"
Solution: 8.7

###

Each item that follows carries a reported Flk Kinase % Inhibition (P.110).
# Test system: FLK-1 receptor
# assayNotes: FLK-1 Assay (cellular/catalytic ELISA, VEGF-stimulated phosphotyrosine)
# Format: cell-based
# Design: concentration or dose not given beside the values
A number alone suffices; assume %.

The examples below pair each entry with its known result.
{"columns": ["molecule", "measuredNumber"],
 "data": [
  ["Cc1c(Br)cc(Br)c2c1C(=Cc1ccc(F)cc1Cl)C(=O)N2 [10719/H09]", 2.5],
  ["Cc1c(Br)cc(Br)c2c1C(=Cc1cccn1-c1ccc(Cl)cc1)C(=O)N2 [10724/H09]", 1.3]
]}

Now for the molecule whose Flk Kinase % Inhibition (P.110) we want.
Exercise: Can you share its Flk Kinase % Inhibition (P.110)? I mean this molecule: Cc1c(Br)cc(Br)c2c1C(=Cc1cc(Br)ccc1O)C(=O)N2 [10733/H09]
Solution: 44.8

###

Each item that follows carries a reported Biochem EGFR % Inhibition (P.167).
# targetOrTestSystem: EGFR (Homo sapiens, UniProt P00533)
# Construct: endogenous in cells; host or cells: A431 cells (lysate, captured with SUMO1 anti-EGFR antibody)
# assayNotes: Biochemical EGFR Assay
# Parameters: concentration or dose not given beside the values
# Experimental: This assay measures the in vitro kinase activity of EGFR using ELISA. 1. Corning 96-well Elisa plates (Corning Catalog No. 25805-96). 2. SUMO1 monoclonal anti-EGFR antibody (Biochemistry Lab, SUGEN, Inc.). 3. PBS (Dulbecco's Phosphate-Buffered Saline, Gibco Catalog No. 450-1300EB). 6. […] Mix first two ingredients in about 900 ml dH2O, adjust pH to 4.0 with phosphoric acid. […] The solution should be kept in the dark at 4° C. until ready to use. […] 22. Read assay on Dynatech MR7000 ELISA reader. […]
A number alone suffices; assume %.

The examples below pair each entry with its known result.
{"columns": ["compound", "experimentalReadout", "measuredNumber"],
 "data": [
  ["Cc1ccc(C=C2C(=O)Nc3ccc(S(=O)(=O)Nc4ccc(C(F)(F)F)cc4)cc32)cc1", "Biochem EGFR % Inhibition (P.167)", 17.0],
  ["Cc1ccccc1C=C1C(=O)Nc2ccc(CCCl)cc21", "Biochem EGFR % Inhibition (P.167)", 23.7],
  ["O=C1Nc2ccc(CCCl)cc2C1=Cc1ccc(F)c(F)c1", "Biochem EGFR % Inhibition (P.167)", 30.3],
  ["Cc1c(Br)cc(Br)c2c1C(=Cc1cc3ccccc3o1)C(=O)N2", "Biochem EGFR % Inhibition (P.167)", "−19.3"],
  ["O=C1Nc2ccc(S(=O)(=O)Nc3ccc(C(F)(F)F)cc3)cc2C1=Cc1cccc(F)c1", "Biochem EGFR % Inhibition (P.167)", "−26.7"]
]}

Now for the compound whose Biochem EGFR % Inhibition (P.167) we want.
Exercise: Can you share its Biochem EGFR % Inhibition (P.167)? I mean this compound: "CCc1ccc(C=C2C(=O)Nc3ccc(S(=O)(=O)NC)cc32)cc1"
Solution: 66.8

###

# Tested on: FLK-1 receptor
# assayNotes: FLK-1 Assay (cellular/catalytic ELISA, VEGF-stimulated phosphotyrosine)
# Format: cell-based
# Set-up: concentration or dose not given beside the values
# runParameters: protocol P.110
experimentalReadout: Flk Kinase % Inhibition (P.110) (%)
A number alone suffices; assume %.

{"columns": ["compound", "Flk Kinase % Inhibition (P.110), %"],
 "data": [
  ["O=C1Nc2ccc(I)cc2C1=Cc1cccc(F)c1F", "−4.6"]
]}

Exercise: Can you share its Flk Kinase % Inhibition (P.110)? I mean this molecule: "CC(C)c1ccc(C=C2C(=O)Nc3ccc(CCCl)cc32)cc1"
Solution: −17.0

Exercise: Now this one: "Cc1c(Br)cc(Br)c2c1C(=Cc1cc(F)ccc1F)C(=O)N2"
Solution: 11.6

###

Each item that follows carries a reported Biochem EGFR % Inhibition (P.167).
# targetOrTestSystem: EGFR (Homo sapiens, UniProt P00533)
# Construct: endogenous in cells; host or cells: A431 cells (lysate, captured with SUMO1 anti-EGFR antibody)
# assayNotes: Biochemical EGFR Assay
# Set-up: concentration or dose not given beside the values
A number alone suffices; assume %.

The examples below pair each entry with its known result.
{"columns": ["compound", "unitTag", "Biochem EGFR % Inhibition (P.167)"],
 "data": [
  ["Cc1c(Br)cc(Br)c2c1C(=Cc1ccc(O)c(O)c1)C(=O)N2", "%", 25.1],
  ["Cc1c(Br)cc(Br)c2c1C(=Cc1ccc3c(c1)Cc1ccccc1-3)C(=O)N2", "%", "−22.8"]
]}

Exercise: Can you share its Biochem EGFR % Inhibition (P.167)? I mean this compound: "CCOc1cccc(C=C2C(=O)Nc3ccc(I)cc32)c1O"
Solution: −8.9

###

# targetOrTestSystem: Met receptor (EGFR/Met chimeric cells, EMR) (Homo sapiens, UniProt P08581)
# Construct: expressed in transfected cells; the other entry of the earlier key: EGFR (P00533, Epidermal growth factor receptor)
# Sequence (P08581 with tags, fused parts or gaps): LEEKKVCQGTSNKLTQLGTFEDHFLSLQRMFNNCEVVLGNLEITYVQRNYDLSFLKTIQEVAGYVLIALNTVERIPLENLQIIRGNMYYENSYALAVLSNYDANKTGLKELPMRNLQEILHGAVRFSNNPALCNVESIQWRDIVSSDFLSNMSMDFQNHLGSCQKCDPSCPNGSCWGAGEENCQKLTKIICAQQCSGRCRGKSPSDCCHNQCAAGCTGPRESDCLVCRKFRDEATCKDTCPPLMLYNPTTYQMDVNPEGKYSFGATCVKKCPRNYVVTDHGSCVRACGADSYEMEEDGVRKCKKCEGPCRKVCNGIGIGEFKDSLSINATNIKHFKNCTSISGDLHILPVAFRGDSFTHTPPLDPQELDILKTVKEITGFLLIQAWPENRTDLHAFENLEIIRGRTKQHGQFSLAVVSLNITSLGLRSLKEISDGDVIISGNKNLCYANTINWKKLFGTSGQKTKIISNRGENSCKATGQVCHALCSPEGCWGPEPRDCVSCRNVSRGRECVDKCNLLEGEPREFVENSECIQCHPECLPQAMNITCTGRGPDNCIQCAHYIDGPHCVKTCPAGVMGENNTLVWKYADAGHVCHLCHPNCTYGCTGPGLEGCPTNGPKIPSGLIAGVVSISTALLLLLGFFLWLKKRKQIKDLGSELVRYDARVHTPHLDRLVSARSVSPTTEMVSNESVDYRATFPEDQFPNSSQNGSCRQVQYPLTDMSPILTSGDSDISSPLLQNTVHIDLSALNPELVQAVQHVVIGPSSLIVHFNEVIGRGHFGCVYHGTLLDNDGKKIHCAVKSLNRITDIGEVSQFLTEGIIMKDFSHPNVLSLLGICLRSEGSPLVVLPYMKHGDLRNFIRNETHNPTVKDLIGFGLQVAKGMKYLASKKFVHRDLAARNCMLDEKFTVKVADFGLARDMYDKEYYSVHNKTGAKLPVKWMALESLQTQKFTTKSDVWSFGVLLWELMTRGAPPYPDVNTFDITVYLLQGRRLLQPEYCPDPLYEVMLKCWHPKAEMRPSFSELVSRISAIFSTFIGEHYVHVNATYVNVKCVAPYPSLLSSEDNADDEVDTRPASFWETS
# assayNotes: Met Autophosphorylation Assay
# Type: biochemical
# Procedure: Met Autophosphorylation Assay This assay determines Met tyrosine kinase activity by analyzing Met protein tyrosine kinase levels on the Met receptor. a. HNTG (5× stock solution): Dissolve 23.83 g HEPES and 43.83 g NaCl in about 350 ml dH2O. Adjust pH to 7.2 with HCl or NaOH, add 500 ml glycerol and 10 ml Triton X-100, mix, add dH2O to 1 L total volume. […] 2. […] Add ½ the calculated HNTG volume, vortex the tube for 1 min., add the remaining amount of HNTG, vortex for another min. […]
experimentalReadout: Met Kinase % Inhibition (P.130) (%)
A number alone suffices; assume %.

Exercise: Can you share its Met Kinase % Inhibition (P.130)? I mean this compound: "Cc1c(Br)cc(Br)c2c1C(=Cc1ccccc1C#N)C(=O)N2"
Solution: 48.5

Exercise: Now this one: "O=C1Nc2c(Br)cc(Br)cc2C1=Cc1cccc2ccccc12"
Solution: 19.2

Exercise: Now this one: "O=C1Nc2ccc(S(=O)(=O)N3CCOCC3)cc2C1=Cc1cc(Br)cc(Br)c1O"
Solution: 95.7

// provenance: patent US20020026053A1
